Organism: Rattus norvegicus
Experiment: DrugMatrix - Regimen: Daily Repeat
Type: toxicity, organism-based, Sprague-Dawley
Parameters: regimen Daily Repeat, gender Male, age 6-8 weeks
Settings: in vivo, sc, 0.5 mg/kg, 72 h, tissue Blood, route mini-PUMP - SUBCUTANEOUS, dose level High, time 3 day, vehicle 100 % SALINE
readout_name: ABSOLUTE LYMPHOCYTE (cells/µL)
Please respond with the number in cells/µL and leave the unit unwritten.

Q. Can you look up the measured ABSOLUTE LYMPHOCYTE of CC[C@H](C)[C@H](NC(=O)[C@H](Cc1ccc(O)cc1)NC(=O)[C@@H](NC(=O)[C@H](CCCNC(=N)N)NC(=O)[C@@H](N)CC(=O)O)C(C)C)C(=O)N[C@@H](Cc1cnc[nH]1)C(=O)N1CCC[C@H]1C(=O)N[C@@H](Cc1ccccc1)C(=O)O for me?
A. 10900

====

Organism: Rattus norvegicus
Assay: DrugMatrix - Regimen: Daily Repeat
Assay type: toxicity, organism-based, Sprague-Dawley
Parameters: regimen Daily Repeat, gender Male, age 6-8 weeks
Conditions: in vivo, po, 0 mg/kg, 72 h, tissue Plasma, route oral GAVAGE, dose level Control, time 3 day, vehicle 100 % WATER
readout_name: LACTATE DEHYDROGENASE (u/L)
Note: unit u/L is implicit; provide only the numeric part.

Q. What value of LACTATE DEHYDROGENASE has been reported for the following molecule? COC(=O)C1=C(C)NC(C)=C(C(=O)OCC(C)C)C1c1ccccc1[N+](=O)[O-] (centres undefined) [NISOLDIPINE]
A. 97.83

Q. Then what about the molecule Cc1ncc([N+](=O)[O-])n1CCO [METRONIDAZOLE] ?
A. 188.33

Q. Same again, this time with CC(C)C[C@H](NC(=O)[C@@H](O)[C@H](N)Cc1ccccc1)C(=O)O [UBENIMEX]
A. 157.5

Q. Check Nc1ccn([C@@H]2CS[C@H](CO)O2)c(=O)n1 [LAMIVUDINE] too.
A. 171

Q. Would you mind doing C[N+](C)(C)CCO.[Cl-] [CHOLINE CHLORIDE] as well?
A. 380.17

Q. And COc1cc2ncnc(Nc3ccc(F)c(Cl)c3)c2cc1OCCCN1CCOCC1 [GEFITINIB] ?
A. 426.17

Q. Input C[C@@H]1C[C@@H]([C@H](O)CC2CC(=O)NC(=O)C2)C(=O)[C@@H](C)C1 [CYCLOHEXIMIDE]
A. 186.17

Q. Now this one: ClC(Cl)Cl [CHLOROFORM]
A. 188.33

Q. Same question, CC(C)(C)c1ccc(C(=O)CCCN2CCC(OC(c3ccccc3)c3ccccc3)CC2)cc1 [EBASTINE] this time
A. 230

====

Organism: Rattus norvegicus
Assay: DrugMatrix - Regimen: Daily Repeat
Assay type: toxicity, organism-based, Sprague-Dawley
Parameters: regimen Daily Repeat, gender Male, age 6-8 weeks
Conditions: in vivo, po, 0 mg/kg, 120 h, tissue Plasma, route oral GAVAGE, dose level Control, time 5 day, […]
Assign ALKALINE PHOSPHATASE to each entry below.
Give your result in u/L as a bare value.

Q. What value of measured ALKALINE PHOSPHATASE is listed for COCCOC(=O)C1=C(C)NC(C)=C(C(=O)OC(C)C)C1c1cccc([N+](=O)[O-])c1 (stereo unspecified) ?
A. 425.67

Q. Now give it for CC(=O)Nc1cccc(O)c1 too.
A. 347.33

Q. And CC(=O)Nc1ccc(O)cc1 ?
A. 359.83

Q. Note, next up: CCCCCCCCc1ccc(O)cc1
A. 414.17

Q. How about CC/C(=C(/CC)c1ccc(O)cc1)c1ccc(O)cc1 ?
A. 303.67

Q. Repeat with C[C@]12CC[C@@H]3c4ccc(O)cc4CC[C@H]3[C@@H]1CC[C@@H]2O
A. 319.17

Q. # iterate: Clc1ccc(Cl)cc1
A. 603.33

Q. Cool, now CCOC(=O)C1=C(C)NC(C)=C(C(=O)OC)C1c1cccc([N+](=O)[O-])c1 (stereo unspecified)
A. 425.67

Q. Could you do the same for CC(C)Cc1ccc(C(C)C(=O)O)cc1 (stereo unspecified) , please?
A. 452

Q. Next entry: Cc1cccc(Nc2ccncc2S(=O)(=O)NC(=O)NC(C)C)c1 [TORSEMIDE]
A. 319.17

Q. Now give it for COc1ccc2[nH]c([S+]([O-])Cc3ncc(C)c(OC)c3C)nc2c1 (stereo unspecified) too.
A. 286.17

====

Species: Rattus norvegicus
Test: DrugMatrix - Regimen: Daily Repeat
Format: toxicity, organism-based, Sprague-Dawley
Set-up: regimen Daily Repeat, gender Male, age 6-8 weeks
Conditions: in vivo, ip, 2 mg/kg, […], tissue Blood, route intraperitoneal, dose level High, time 14 day, vehicle 100 % SALINE
readout_name: ABSOLUTE LYMPHOCYTE (cells/µL)
Express your answer in cells/µL, writing the number without its unit.

Q. Look up ABSOLUTE LYMPHOCYTE for this substance: CADMIUM DICHLORIDE
A. 8270

====

Species on record: Rattus norvegicus
Experiment: DrugMatrix - Regimen: Daily Repeat
Type: toxicity, organism-based, Sprague-Dawley
Set-up: regimen Daily Repeat, gender Male, age 6-8 weeks
Conditions: in vivo, po, 0 mg/kg, 120 h, tissue Plasma, route oral GAVAGE, dose level Control, time 5 day, […]
readout_name: CARBON DIOXIDE (mmol/L)
Reply with just the number (in mmol/L).

Q. Fill in: CARBON DIOXIDE of CC(C)Cc1ccc(C(C)C(=O)O)cc1 (stereo not given) is ___
A. 26.33

Q. Now give it for CC(=O)Nc1cccc(O)c1 too.
A. 27.17

Q. Another compound to look at: Cc1cccc(Nc2ccncc2S(=O)(=O)NC(=O)NC(C)C)c1 [TORSEMIDE]
A. 30.83

Q. And what about the compound CCCCCCCCc1ccc(O)cc1 ?
A. 29.17

Q. What would you report for CC(=O)Nc1ccc(O)cc1 ?
A. 27.17

Q. Same again, this time with COc1ccc2[nH]c([S+]([O-])Cc3ncc(C)c(OC)c3C)nc2c1 (stereo not given)
A. 25.5

Q. Query Clc1ccc(Cl)cc1 next
A. 43

Q. What about this compound? CCOC(=O)C1=C(C)NC(C)=C(C(=O)OC)C1c1cccc([N+](=O)[O-])c1 (stereo not given)
A. 30.5

Q. Input C[C@H]1O[C@@H](O[C@H]2[C@@H](O)C[C@H](O[C@H]3[C@@H](O)C[C@H](O[C@H]4CC[C@@]5(C)[C@H](CC[C@@H]6[C@@H]5CC[C@]5(C)[C@@H](C7=CC(=O)OC7)CC[C@]65O)C4)O[C@@H]3C)O[C@@H]2C)C[C@H](O)[C@@H]1O
A. 37

Q. Note, next up: O=NN(CCCl)C(=O)NCCCl
A. 27.17

Q. How about this compound: CC/C(=C(/CC)c1ccc(O)cc1)c1ccc(O)cc1
A. 31.83

Q. Further, for O=C(O)Cc1ccccc1Nc1c(Cl)cccc1Cl ?
A. 33.17

Q. Please give the result for C[C@]12CC[C@@H]3c4ccc(O)cc4CC[C@H]3[C@@H]1CC[C@@H]2O too.
A. 30.83

Q. Next compound up: CC(C)(Oc1ccc(C2CCCc3ccccc32)cc1)C(=O)O (stereo not given)
A. 31.83

Q. Item: COCCOC(=O)C1=C(C)NC(C)=C(C(=O)OC(C)C)C1c1cccc([N+](=O)[O-])c1 (stereo not given)
A. 30.5

====

Hi there, I'd appreciate the recorded MEAN CORPUSCULAR VOLUME for every entry that follows.
Species on record: Rattus norvegicus
Experiment: DrugMatrix - Regimen: Daily Repeat
Type: toxicity, organism-based, Sprague-Dawley
Parameters: regimen Daily Repeat, gender Male, age 6-8 weeks
Conditions: in vivo, iv, 0 mg/kg, 120 h, tissue Blood, dose level Control, time 5 day, vehicle 100 % SALINE

Q. # input compound: COc1cccc2c1C(=O)c1c(O)c3c(c(O)c1C2=O)C[C@@](O)(C(=O)CO)C[C@@H]3O[C@H]1C[C@H](N)[C@@H](O)[C@H](C)O1 [EPIRUBICIN] ; wanted: its MEAN CORPUSCULAR VOLUME
A. 62.47 fL

Q. Would you kindly repeat that for CCC1=C[C@@H]2CN(C1)Cc1c([nH]c3ccccc13)[C@@](C(=O)OC)(c1cc3c(cc1OC)N(C)[C@H]1[C@@](O)(C(=O)OC)[C@H](OC(C)=O)[C@]4(CC)C=CCN5CC[C@]31[C@@H]54)C2 ?
A. 62.37 fL

Q. Entry CC(=O)N[C@@H]1[C@H](Oc2c3cc4cc2Oc2ccc(cc2Cl)[C@@H](O[C@@H]2O[C@@H](CO)[C@@H](O)[C@H](O)[C@@H]2NC(C)=O)[C@@H]2NC(=O)[C@H](NC(=O)[C@@H]4NC(=O)[C@H]4NC(=O)[C@@H](Cc5ccc(c(Cl)c5)O3)NC(=O)[C@H](N)c3ccc(O)c(c3)Oc3cc(O)cc4c3)c3ccc(O)c(c3)-c3c(O[C@H]4O[C@H](CO)[C@@H](O)[C@@H](O)[C@@H]4O)cc(O)cc3[C@@H](C(=O)O)NC2=O)O[C@@H](CO)[C@@H](O)[C@@H]1O please
A. 62.6 fL

Q. Try this compound next: CC[C@]1(O)C[C@@H]2CN(CCc3c([nH]c4ccccc34)[C@@](C(=O)OC)(c3cc4c(cc3OC)N(C)[C@H]3[C@@](O)(C(=O)OC)[C@H](OC(C)=O)[C@]5(CC)C=CCN6CC[C@]43[C@@H]65)C2)C1
A. 63.08 fL

Q. Repeat with COc1cccc2c1C(=O)c1c(O)c3c(c(O)c1C2=O)C[C@@](O)(C(=O)CO)C[C@@H]3O[C@H]1C[C@H](N)[C@H](O)[C@H](C)O1
A. 62.78 fL
